Molecular target: [35S]-TBPS binding, rat brain cortical membranes
Experiment: Steroid inhibition of [35S]-TBPS binding
Details: Table 4, 3 nM [35S]-TBPS, in the presence of 5 mM GABA, read-out: TBPS IC50
pIC50: −log10 of the molar value.
Please provide measured pIC50 for the entries that follow.

Cc1nnn(CC(=O)[C@H]2CCCC[C@H]3[C@@H]4CC[C@@H]5C[C@](C)(O)CCC[C@]5(C)[C@H]4CC[C@]23C)n1: > 7.00

Give one value of pIC50 per listed molecule.
1. CC[C@@]1(O)CCC[C@H]2[C@H](CC[C@@H]3[C@@H]2CC[C@]2(C)[C@@H](C(C)=O)CCC[C@@H]32)C1
2. C[C@@]1(O)CCC[C@@]2(C)[C@H](CC[C@@H]3[C@@H]2CC[C@]2(C)[C@H](C(=O)Cn4cc(C#N)cn4)CCCC[C@@H]32)C1
3. CC[C@]12CC[C@H]3[C@@H](CC[C@@H]4CC[C@@](O)(COC)CC[C@@H]43)[C@@H]1CC[C@@H]2C(C)=O
4. C[C@]1(O)CC[C@@H]2CC[C@@H]3[C@H](CC[C@]4(C)[C@H](C(=O)Cn5cc(C#N)cn5)CCC[C@@H]34)[C@@]2(C)CC1

6.00 to 7.00
6.00 to 7.00
6.00 to 7.00
< 6.00

// each listed molecule needs a value for pIC50
1. CC[C@]12CC[C@H]3[C@@H](CC[C@@H]4C[C@](C)(O)CCC[C@@]43C)[C@@H]1CC[C@@H]2C(C)=O
2. CC[C@]12CCCC(C)(O)C[C@H]1CC[C@H]1[C@@H]3CC[C@H](C(=O)Cn4cc(C#N)cn4)[C@@]3(C)CC[C@@H]12 (stereo in doubt)
3. C[C@]1(O)CCC2=CC[C@H]3[C@@H]4CCC[C@H](C(=O)Cn5cc(C#N)cn5)[C@@]4(C)CC[C@@H]3[C@@]2(C)CC1
4. CC[C@@]1(O)CCC[C@H]2[C@H](CC[C@@H]3[C@@H]2CC[C@]2(C)[C@@H](C(=O)Cn4cc(C#N)cn4)CCC[C@@H]32)C1
5. CC(=O)[C@H]1CCC[C@H]2[C@@H]3CC[C@@H]4C[C@](C)(O)CCC[C@@H]4[C@H]3CC[C@]12C
6. C[C@]1(O)CC[C@H]2CC[C@@H]3[C@H](CC[C@]4(C)[C@@H](C(=O)Cn5cc(C#N)cn5)CCC[C@@H]34)[C@H]2CC1
7. CC[C@]1(O)CC[C@H]2CC[C@@H]3[C@H](CC[C@]4(C)[C@@H](C(=O)Cn5cc(C#N)cn5)CCC[C@@H]34)[C@H]2CC1

> 7.00
> 7.00
> 7.00
6.00 to 7.00
> 7.00
6.00 to 7.00
6.00 to 7.00

Batch: pIC50 for all items listed.
1. C[C@@]1(O)CCC[C@@]2(C)[C@H](CC[C@@H]3[C@@H]2CC[C@]2(C)[C@@H](C(=O)CCn4cc(C#N)cn4)CCC[C@@H]32)C1
2. Cc1nnn(CC(=O)[C@@H]2CCCC[C@H]3[C@@H]4CC[C@@H]5C[C@](C)(O)CCC[C@]5(C)[C@H]4CC[C@]23C)n1
3. CC[C@]12CC[C@@](C)(O)C[C@H]1CC[C@H]1[C@@H]3CCCC[C@@H](C(C)=O)[C@@]3(C)CC[C@@H]12
4. COC[C@]1(O)CC[C@@H]2CC[C@@H]3[C@H](CC[C@]4(C)[C@@H](C(=O)Cn5cc(C#N)cn5)CCC[C@@H]34)[C@@]2(C)CC1

1. > 7.00
2. 6.00 to 7.00
3. 6.00 to 7.00
4. 6.00 to 7.00

* * *

Target: [35S]-TBPS binding, rat brain cortical membranes
Assay: Steroid inhibition of [35S]-TBPS binding
Conditions: Table 5, 3 nM [35S]-TBPS, in the presence of 5 mM GABA, read-out: TBPS IC50
pIC50: −log10 of the molar value.
For each of the compounds below, state its pIC50.

Consider the following illustrative entries.
CC[C@]12CC[C@@](C)(O)C[C@H]1CC[C@H]1[C@@H]3CC[C@H](C(=O)Cn4nnc(C)n4)[C@H]3CC[C@@H]12 [Example 83]: > 7.00
Cc1nnn(CC(=O)[C@H]2CCC[C@H]3[C@@H]4CC[C@H]5C[C@](C)(O)CC[C@@H]5[C@H]4CC[C@@H]32)n1 [Example 80]: > 7.00

For every item below, please supply its pIC50.
1. CC(=O)[C@H]1CC[C@H]2[C@@H]3CC[C@H]4C[C@](C)(O)CC[C@@H]4[C@H]3CC[C@@H]21 [Example 72]
2. Cc1nnn(CC(=O)[C@H]2CC[C@H]3[C@@H]4CC[C@H]5C[C@](C)(O)CC[C@@H]5[C@H]4CC[C@@H]32)n1 [Example 73]
3. Cc1nnnn1CC(=O)[C@H]1CCC[C@H]2[C@@H]3CC[C@H]4C[C@](C)(O)CC[C@@H]4[C@H]3CC[C@@H]21 [Example 81]
4. C[C@@]1(O)CC[C@H]2[C@H](CC[C@@H]3[C@@H]2CC[C@H]2[C@H]3CC[C@H]2C(=O)Cn2cc(C#N)cn2)C1 (stereo in doubt) [Example 71]
5. CC(=O)[C@H]1CCC[C@H]2[C@@H]3CC[C@H]4C[C@](C)(O)CC[C@@H]4[C@H]3CC[C@@H]21 [Example 79]

1: < 6.00; 2: < 6.00; 3: > 7.00; 4: < 6.00; 5: 6.00 to 7.00

* * *

Target: [35S]-TBPS binding, rat brain cortical membranes
Assay: Steroid inhibition of [35S]-TBPS binding
Settings: Table 4, 3 nM [35S]-TBPS, in the presence of 5 mM GABA, read-out: TBPS IC50
pIC50: −log10 of the molar value.
test-readout: pIC50

CC(=O)[C@H]1CCCC[C@H]2[C@@H]3CC[C@@H]4C[C@](C)(O)CCC[C@]4(C)[C@H]3CC[C@]12C [Example 59]: 6.00 to 7.00

Below is a list of compounds. For each, state its recorded pIC50.
1. CC[C@@]1(O)CCC[C@@]2(C)[C@H](CC[C@@H]3[C@@H]2CC[C@]2(C)[C@@H](C(C)=O)CCC[C@@H]32)C1 [Example 37]
2. CC[C@@]1(O)CCC[C@@]2(C)[C@@H](CC[C@@H]3[C@@H]2CC[C@]2(C)[C@@H](C(=O)Cn4cc(C#N)cn4)CCC[C@@H]32)C1 [Example 42]

1: 6.00 to 7.00; 2: 6.00 to 7.00

* * *

Molecular target: [35S]-TBPS binding, rat brain cortical membranes
Assay: Steroid inhibition of [35S]-TBPS binding
Conditions: Table 4, 3 nM [35S]-TBPS, in the presence of 5 mM GABA, read-out: TBPS IC50
Protocol: [35S]-t-Butylbicyclophosphorothionate (TBPS) binding assays using rat brain cortical membranes in the presence of 5 mM GABA has been described (Gee et al, J. Pharmacol. Exp. Ther. 1987, 241, 346-353; Hawkinson et al, Mol. Pharmacol. 1994, 46, 977-985; Lewin, A. H et al., Mol. Pharmacol. 1989, 35, 189-194). Briefly, cortices are rapidly removed following decapitation of carbon dioxide-anesthetized Sprague-Dawley rats (200-250 g). […]
test-readout: IC50

CC[C@]12CC[C@H]3[C@@H](CC[C@@H]4C[C@](C)(O)CC[C@@H]43)[C@@H]1CCC[C@@H]2C(C)=O: < 100 nM
Cc1nnnn1CC(=O)[C@@H]1CCCC[C@H]2[C@@H]3CC[C@@H]4C[C@](C)(O)CCC[C@]4(C)[C@H]3CC[C@]12C: > 1000 nM
C[C@]1(O)CC[C@H]2CC[C@@H]3[C@H](CC[C@]4(C)[C@H](C(=O)Cn5cc(C#N)cn5)CCC[C@@H]34)[C@H]2CC1: > 1000 nM
CC(=O)[C@H]1CCC[C@H]2[C@@H]3CC[C@@H]4C[C@](C)(O)CCC[C@]4(C)[C@H]3CC[C@]12C: < 100 nM
COC[C@]1(O)CC[C@H]2CC[C@@H]3[C@H](CC[C@]4(C)[C@@H](C(=O)Cn5cc(C#N)cn5)CCC[C@@H]34)[C@H]2CC1: 100 to 1000 nM

Consider the record given below.
Value lookup for IC50; key = `CC[C@@]1(O)CCC[C@H]2[C@H](CC[C@@H]3[C@@H]2CC[C@]2(C)[C@H](C(C)=O)CCC[C@@H]32)C1`
> 1000 nM
